src = ChEMBL document CHEMBL5634146

Assay: in vitro
Conditions: mouse, liver S9 fraction
Readout kind: remaining at 0.5 h

What does the data say about its remaining at 0.5 h? Entry: N[C@H]1CC[C@H](NC(=O)c2ccc3[nH]nc(-c4nc5ccc(N6CCOCC6)cc5[nH]4)c3c2)C1
61%

* * *

Assay: in vitro
Conditions: human, liver S9 fraction
Readout kind: remaining at 0.5 h (%)
The figure you give is taken to be in %; do not add the unit.

What does the data say about its remaining at 0.5 h? Entry: N[C@H]1CC[C@H](NC(=O)c2ccc3[nH]nc(-c4nc5ccc(N6CCOCC6)cc5[nH]4)c3c2)C1
61
